Target: Falcipain 2 (Plasmodium falciparum)
Sequence (Q9N6S8 whole entry): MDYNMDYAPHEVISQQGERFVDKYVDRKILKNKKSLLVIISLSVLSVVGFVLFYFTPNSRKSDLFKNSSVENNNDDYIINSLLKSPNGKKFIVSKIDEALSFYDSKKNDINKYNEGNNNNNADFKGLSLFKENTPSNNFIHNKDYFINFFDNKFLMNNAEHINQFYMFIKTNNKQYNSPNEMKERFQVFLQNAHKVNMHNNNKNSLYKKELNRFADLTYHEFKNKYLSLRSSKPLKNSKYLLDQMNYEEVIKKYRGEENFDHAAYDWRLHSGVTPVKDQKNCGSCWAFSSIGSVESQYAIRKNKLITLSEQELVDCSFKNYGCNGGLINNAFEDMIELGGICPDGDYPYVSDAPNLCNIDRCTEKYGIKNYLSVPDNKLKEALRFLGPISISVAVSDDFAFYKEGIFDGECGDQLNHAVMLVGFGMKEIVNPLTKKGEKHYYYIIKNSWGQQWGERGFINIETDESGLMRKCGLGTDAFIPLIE
// molecules with reported IC50 on Falcipain 2 (Plasmodium falciparum), multi-publication
// returns 0 unless IC50 is strictly below 2000 nM, in which case 1

Does the reported IC50 of Cn1nc(C(F)(F)F)cc1-c1ccc(C(=O)N[C@@H](Cc2cccnc2)C(=O)NC2(C#N)CC2)s1 stay below 2000 nM?
1

Answer whether the molecule CN(C)c1ccc(C[C@H](NC(=O)c2ccc(-c3ccccc3)cc2)C(=O)NC2(C#N)CC2)cc1 has IC50 strictly less than 2000 nM
0

Does the reported IC50 of the following molecule sit strictly below 2000 nM? N#CC1(NC(=O)[C@H](Cc2cccnc2)NC(=O)c2ccc(-c3ccccc3)cc2)CC1
1

Is it true that IC50 reported for O=S(=O)(c1ccc(-c2ccc(S(=O)(=O)N3CCOCC3)s2)s1)N1CCOCC1 is less than 2000 nM?
0

Hello, is IC50 of the following molecule strictly smaller than 2000 nM? N#CC1(NC(=O)[C@H](Cc2cscn2)NC(=O)c2ccc(-c3ccccc3)cc2)CC1
1

Find out if reported IC50 for CCOC(=O)c1c2cc(OCC(=O)NCc3ccco3)ccc2n2ccccc12 is less than 2000 nM
0

Strictly below 2000 nM: is that where IC50 of CC(C)C[C@H](NC(=O)[C@@H]1O[C@H]1C(=O)O)C(=O)NCCCCN=C(N)N sits?
1

Take the molecule N#CC1(NC(=O)[C@H](Cc2ccc(O[C@@H]3CCNC3)cc2)NC(=O)c2ccc(-c3ccccc3)cc2)CC1 and say whether its IC50 is less than 2000 nM.
1

Does the reported IC50 of Cc1nc(C)nc(N(CCS(=O)(=O)c2ccccc2)CCS(=O)(=O)c2ccccc2)n1 stay below 2000 nM?
0
